System: HOP-62
Assay: NCI tumour cell line growth inhibition, 48 h
Calls of active or inactive are those of the source. Rule as the data show it: active = GI50 up to about 1.1 µM and inactive = higher.
Pick one and only one: active, inactive

Solved entries:
compound	class
FC1(F)[Se]C2C3CCC(C3)C2C1(F)F (configuration not stated)	inactive
CC1=C[C@@H]2Cc3occc3C(C)(C)[C@@H]2CC1	inactive
COCN1C(=O)[C@@H]2CCCN2C(=O)c2cc(OC)c(Cc3ccccc3)cc21	inactive
O=C(CSc1c2ccccc2nc2ccccc12)Nc1ccccc1-c1ccccc1NC(=O)CSc1c2ccccc2nc2ccccc12	inactive

Challenge: I'd appreciate the recorded outcome for COc1ccc(-c2cc(C(=O)Nc3cccc(C(F)(F)F)c3)nc(S)n2)cc1 from this test.
Response given: inactive

Challenge: I'd appreciate the recorded outcome for Cc1cc(C#N)c(Nc2c(C)cccc2[N+](=O)[O-])s1 from this test.
Response given: inactive

Challenge: I'd appreciate the recorded outcome for COC(=O)C1(C(=O)OC)C/C(C)=C(/C)SCCCS1 from this test.
Response given: inactive

====

Test system: NCI-H226
Assay: NCI tumour cell line growth inhibition, 48 h
Active and inactive are the calls of the source. Cut-off read from the data, not from the text of the source: active = GI50 up to about 1.1 µM and inactive = higher.
measurement-label: GI50

compound	tested-on	measurement-label	measured
COC(=O)c1cc2/c(=N/O)c3ccccc3sc2o1	NCI-H226	GI50	> 100 µM (inactive)
N=C(N)SCC(=O)O	NCI-H226	GI50	> 100 µM (inactive)
O=C(C[n+]1ccccc1)N/N=C(\C(=O)NC1=C(Cl)C(=O)c2ccccc2C1=O)c1c(O)c2ccc(O)cc2oc1=O	NCI-H226	GI50	5.56 µM (inactive)
O=Cc1ccc2[nH]c(=O)oc2c1	NCI-H226	GI50	> 100 µM (inactive)

Challenge: Answer with the recorded GI50 for the compound listed here: COc1ccc(C(C#N)NCCCCCCNC(C#N)c2ccc(OC)cc2)cc1 (stereo unspecified)
Response given: > 100 µM (inactive)

Challenge: Answer with the recorded GI50 for the compound listed here: O=CNNC(=O)CSc1nc2ccc(I)cc2c(=O)n1Cc1ccccc1
Response given: 49.3 µM (inactive)

====

Form field: GI50 (one value per entry).
Test system: NCI-H23
Assay: NCI tumour cell line growth inhibition, 48 h
Activity calls are given as the source filed them. Cut-off read from the data, not from the text of the source: active = GI50 up to about 1.1 µM and inactive = higher.

// solved cases for GI50 follow
compound	tested-on	measurement-label	measured
CS/C(=N\C(=S)N(C)C)N(c1ccccc1)c1nc(N(C)C)s[s+]1	NCI-H23	GI50	12.4 µM (inactive)
Cc1nc2c(o1)/C(=N\c1ccccc1)c1ccccc1/C2=N/c1ccccc1	NCI-H23	GI50	49.2 µM (inactive)
CCC1(N)C(=O)OCc2c1cc1n(c2=O)Cc2cc3ccccc3nc2-1 (stereo unspecified)	NCI-H23	GI50	4.56 µM (inactive)
CCN(CC)C(=S)SS(=O)(=O)c1ccc(NC(C)=O)cc1	NCI-H23	GI50	24 µM (inactive)
N#Cc1ccc(OC(=O)c2ccc(NC(=N)N)cc2)cc1.c1ccncc1	NCI-H23	GI50	> 100 µM (inactive)

Challenge: Answer with the recorded GI50 for the compound listed here: O=C1CNc2cc(N3CCOCC3)ccc2N1
Response given: > 100 µM (inactive)

====

Form field: GI50 (one value per entry).
Test system: MDA-MB-231
Experiment: NCI tumour cell line growth inhibition, 48 h
The source made the active and inactive calls. Cut-off read from the data, not from the text of the source: active = GI50 up to about 1.1 µM and inactive = higher.

compound	measurement-label	measured
NCCSc1nc2ccccc2s1	GI50	40 µM (inactive)
CCOC(=O)c1ccc(C(=O)C(C(C)=O)C(=O)OC(C)(C)C)n1C (stereo not drawn)	GI50	> 100 µM (inactive)

Challenge: Answer with the recorded GI50 for the compound listed here: C/C=C1\C(=O)OC2CCN3CCC(COC(=O)C(C)(O)C(C)C1O)C23 (stereo not drawn)
Response given: > 100 µM (inactive)

Challenge: Answer with the recorded GI50 for the compound listed here: O=C(NNc1ccc([N+](=O)[O-])cc1[N+](=O)[O-])/C(O)=C\C(=O)c1ccccc1
Response given: 23.4 µM (inactive)

Challenge: Answer with the recorded GI50 for the compound listed here: COc1c(C)c2c(c(=O)c3c(C)cccc3n2C)c2c1c(=O)c1c(C)cccc1n2C
Response given: > 10 µM (inactive)

Challenge: Answer with the recorded GI50 for the compound listed here: C=CCC1(C(=O)OC)CCC/C(=N\O)C1 (stereo not drawn)
Response given: > 10 µM (inactive)

Challenge: Answer with the recorded GI50 for the compound listed here: C/C=C1\CC(C(=O)OCC)CCCCCCC1=O (stereo not drawn)
Response given: > 100 µM (inactive)

====

System: NCI/ADR-RES
Assay: NCI tumour cell line growth inhibition, 48 h
The source made the active and inactive calls. No stated cut-off is given here; in the data, active = GI50 up to about 1.1 µM and inactive = higher.
Pick one and only one: active, inactive

compound	class
N#Cc1c(-c2ccccc2)cc(-c2ccccc2)n(C2OCC(O)C(O)C2O)c1=S (stereo not given)	inactive
Cc1cc2nc(CC(C(F)(F)F)C(F)(F)F)oc2cc1C	inactive
CN(C)CCNC1=Nc2ccccc2C(=S)N2CSCC12 (stereo not given)	inactive
CCCN(CCC)C(=S)N/N=C/c1ccccn1	active
O=C1OC(c2ccccc2)=N/C1=C/c1cccs1	inactive
Cc1cc(S(=O)(=O)n2ccnc2Oc2cccc(Cl)c2)c(SSc2cc(Cl)c(C)cc2S(=O)(=O)n2ccnc2Oc2cccc(Cl)c2)cc1Cl	inactive

Challenge: I'd appreciate the recorded outcome for COCN1C(=O)[C@@H]2CCCN2C(=O)c2cc(OC)c(Cc3ccccc3)cc21 from this test.
Response given: inactive

Challenge: I'd appreciate the recorded outcome for CC(C)C(C/C=C1/CC(CO)(COC(=O)C(C)(C)C)OC1=O)C(C)C (stereo not given) from this test.
Response given: inactive

Challenge: I'd appreciate the recorded outcome for CCN(CC)C(=S)SS(=O)(=O)c1ccc(NC(C)=O)cc1 from this test.
Response given: inactive

Challenge: I'd appreciate the recorded outcome for CCCCCCc1cn([C@H]2C[C@H](O)[C@@H](CO)O2)c(=O)[nH]c1=O from this test.
Response given: inactive

====

Test system: SNB-75
Experiment: NCI tumour cell line growth inhibition, 48 h
Activity calls are given as the source filed them. Rule as the data show it: active = GI50 up to about 1.1 µM and inactive = higher.
Form field: GI50 (one value per entry).

// solved cases for GI50 follow
compound	tested-on	GI50
N#C/N=C(/N)NCO	SNB-75	> 100 µM (inactive)
COc1ccc(-[n+]2nc(S(=O)(=O)O)c(/C=C/c3ccc(N(C)C)cc3)cc2C#N)cc1	SNB-75	> 100 µM (inactive)
COC(=O)C(COC(C)=O)NC(=O)/C=C/c1ccc(O)c(OC(C)=O)c1 (stereo not given)	SNB-75	> 100 µM (inactive)
O=C(O)CC[N+]1=CCC(c2ccccc2)(c2ccccc2)O1	SNB-75	44.1 µM (inactive)
CC(C)COP(C)(=O)C(N)(C(F)(F)F)C(F)(F)F (stereo not given)	SNB-75	7.78 µM (inactive)
O=C(/C=C1\C[C@H]2C=Nc3ccccc3C(=O)N2C1)NCCCCCNC(=O)/C=C1\C[C@H]2C=Nc3ccccc3C(=O)N2C1	SNB-75	13.6 µM (inactive)
CS(=O)(=O)c1nc(-c2cc3c(c(S(C)(=O)=O)n2)CCCC3)cc2c1CCCCC2	SNB-75	22.4 µM (inactive)
CN(CC(=O)Nc1ccccc1C(=O)O)c1ccccc1	SNB-75	> 100 µM (inactive)
COc1ccc(C(=O)/C=C/c2ccncc2)cc1OC	SNB-75	13.5 µM (inactive)

Challenge: Answer with the recorded GI50 for the compound listed here: O=C(CNc1ccc(Cl)cc1Cl)NC1C=Cc2ccc(S(=O)(=O)Nc3ccc(Cl)cc3Cl)cc2C1=O (stereo not given)
Response given: > 100 µM (inactive)

====

Test system: RXF 631
Experiment: NCI tumour cell line growth inhibition, 48 h
The source made the active and inactive calls. Cut-off read from the data, not from the text of the source: active = GI50 up to about 1.1 µM and inactive = higher.
measurement-label: GI50

// solved cases for GI50 follow
molecule	measured
Fc1cccc(C2SCc3nc4ccccc4n32)c1F (stereo unspecified)	16.4 µM (inactive)
Cc1cc(Cl)ccc1NC(=O)C1C(=O)C(=O)N(c2ccc(Cl)cc2C)C1=O (stereo unspecified)	68.2 µM (inactive)
O=C(O)CCNCCCNCCC(=O)O	> 100 µM (inactive)
O=C(Cc1ccccc1)C(c1ccccc1)S(=O)(=O)c1ccccc1 (stereo unspecified)	> 100 µM (inactive)
COC(=O)CC(=O)C[P+](c1ccccc1)(c1ccccc1)c1ccccc1	> 218 µM (inactive)

Let us move to another entry and its GI50.
Challenge: Answer with the recorded GI50 for the molecule listed here: O=C(O)COc1ccc(O)c2c1C(=O)CCCC2=O
Response given: > 100 µM (inactive)

====

Test system: UO-31
Assay: NCI tumour cell line growth inhibition, 48 h
Active and inactive are the calls of the source. Cut-off read from the data, not from the text of the source: active = GI50 up to about 1.1 µM and inactive = higher.
measurement-label: GI50

// solved cases for GI50 follow
molecule	tested-on	measurement-label	measured
COc1ccc(NC(=O)CC(=O)N2N=C(C)C(/N=N/c3ccc(C(=O)O)cc3)C2=O)cc1 (centres undefined)	UO-31	GI50	> 100 µM (inactive)
COc1cc(C2C(C(=O)O)=C(COC(C)=O)Oc3cc4c(cc32)OCO4)cc(OC)c1OC(C)=O (centres undefined)	UO-31	GI50	> 100 µM (inactive)
Cc1ccc(C(=O)Nc2ccc(S(=O)(=O)O)c3cc(S(=O)(=O)O)cc(S(=O)(=O)O)c23)cc1NC(=S)Nc1cc(C(=O)Nc2ccc(S(=O)(=O)O)c3cc(S(=O)(=O)O)cc(S(=O)(=O)O)c23)ccc1C	UO-31	GI50	> 75 µM (inactive)

Challenge: Answer with the recorded GI50 for the molecule listed here: O=C(NCCN1CCOCC1)c1cn2c(ccc3sc4ccccc4c(=O)c32)n1
Response given: > 100 µM (inactive)

Data origin: ChEMBL document CHEMBL1201862
